# system: Bromodomain-containing protein 4 (Homo sapiens, UniProt O60885)
# testMethodNotes: Inhibition of BRD4 (unknown origin) by biotinylated-JQ1 based AlphaScreen BRD binding assay
measuredMetric: IC50 (µM)

1 = Cc1noc(C)c1-c1ccc(-c2nc3cnccn3c2NC(C)(C)C)cc1
2 = COc1ccc(-c2cc(-c3ccc(-c4c(C)noc4C)cc3)nc(-c3ccccc3)n2)cc1
Which numeric IC50 is bigger, that of 1 or that of 2 ? Refer to your chosen entry by its label in the reply.
2
(2: 69.9 µM, 1: 0.637 µM)

###

# system: Bromodomain-containing protein 4 (Homo sapiens, UniProt O60885)
# testMethodNotes: Inhibition of BRD4 (unknown origin) by biotinylated-JQ1 based AlphaScreen BRD binding assay
pIC50: −log10 of the molar value.
measuredMetric: pIC50

compound	experimentalResult
COc1ccc(Nc2c(-c3ccc(-c4c(C)noc4C)cc3)nn3ccncc23)cc1	5.10

a = Cc1noc(C)c1-c1ccc(C=O)cc1
b = CCOC(=O)C(C)N(Cc1ccc(-c2c(C)noc2C)cc1)C(=O)c1ccc(OC)cc1 (centres undefined)
Could you determine which record has the numerically smaller pIC50? Candidates: a and b Refer to your chosen entry by its label in the reply.
b
(b: 4.79, a: 5.77)
